Where these numbers come from: patent US20250346685A1

# system: T1, human CD3εγ-Fc heterodimer (human)
# T1 construct: also called human CD3εγ recombinant protein; human CD3εγ protein
# T1 chain 1: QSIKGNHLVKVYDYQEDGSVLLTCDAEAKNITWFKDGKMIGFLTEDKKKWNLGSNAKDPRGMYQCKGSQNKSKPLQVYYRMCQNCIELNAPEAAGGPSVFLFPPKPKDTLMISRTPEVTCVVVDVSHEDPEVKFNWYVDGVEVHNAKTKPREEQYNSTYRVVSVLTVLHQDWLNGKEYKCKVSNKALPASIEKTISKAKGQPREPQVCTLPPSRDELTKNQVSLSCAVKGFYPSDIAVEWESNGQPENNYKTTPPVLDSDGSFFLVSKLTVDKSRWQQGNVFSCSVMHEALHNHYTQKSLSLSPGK
# T1 chain 2: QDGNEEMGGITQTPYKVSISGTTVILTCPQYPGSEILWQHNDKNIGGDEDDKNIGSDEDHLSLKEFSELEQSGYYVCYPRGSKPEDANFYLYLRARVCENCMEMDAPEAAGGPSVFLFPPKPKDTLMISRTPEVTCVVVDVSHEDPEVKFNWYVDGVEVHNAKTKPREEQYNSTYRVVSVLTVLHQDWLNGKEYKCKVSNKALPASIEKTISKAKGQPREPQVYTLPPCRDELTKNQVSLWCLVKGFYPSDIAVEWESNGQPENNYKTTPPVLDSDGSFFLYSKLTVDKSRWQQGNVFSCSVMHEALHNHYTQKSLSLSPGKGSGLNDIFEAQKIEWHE
# method.description: ELISA, coated human CD3εγ recombinant protein
Threshold rule: affinity (ELISA) greater than or equal to 0.5 nM is criterion met; below that, criterion not met.

Illustrative cases are given below, each with its answer.
Input: Identify whether the reported affinity (ELISA) of the following binder is 0.5 nM or greater: aCD3-hVH8/VL1 (antibody, human IgG4, V domains shown, also called humanized anti-CD3 antibody hVH8/VL1) VH: EVQLVESGGGLVQPGGSLRLSCAASGFTFNTYAMNWVRKAPGKGLEWVGRIRSKYNNYATYYADSVKDRFTISRDDSKNSLYLQMNSLKTEDTAVYYCARHGNFGNSYVSWFAYWGQGTLVTVSS VL: QAVVTQEPSLTVSPGGTVTLTCRSSTGAVTTSNYANWVQQKPGQAPRGLIGGTNKRAPWTPARFSGSLLGGKAALTLSGAQPEDEAEYYCALWYSNLWVFGGGTKLTVL
Output: criterion met

Input: Identify whether the reported affinity (ELISA) of the following binder is 0.5 nM or greater: aCD3-hVH9/VL2 (antibody, human IgG4, V domains shown, also called humanized anti-CD3 antibody hVH9/VL2) VH: EVQLVESGGGLVQPGGSLRLSCAASGFTFNTYAMNWVRKAPGKGLEWVGRIRSKYNNYATYYADSVKDRFTISRDDSKNSLYLQMNSLKTEDTAVYYCVRHGNFGNSYVSWFAYWGQGTLVTVSS VL: QAVVTQEPSLTVSPGGTVTLTCRSSTGAVTTSNYANWVQEKPGQAPRGLIGGTNKRAPWTPARFSGSLLGGKAALTLSGAQPEDEAEYYCALWYSNLWVFGGGTKLTVL
Output: criterion not met

Input: Identify whether the reported affinity (ELISA) of the following binder is 0.5 nM or greater: aCD3-hVH9/VL5 (antibody, human IgG4, V domains shown, also called humanized anti-CD3 antibody hVH9/VL5) VH: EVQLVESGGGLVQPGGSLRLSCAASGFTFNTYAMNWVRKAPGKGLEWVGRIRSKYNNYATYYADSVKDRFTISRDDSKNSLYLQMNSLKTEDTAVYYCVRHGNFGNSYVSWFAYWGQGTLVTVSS VL: QAVVTQEPSLTVSPGGTVTLTCRSSTGAVTTSNYANWVQEKPGQAPRGLIGGTNKRAPWTPARFSGSLLGGKAALTITGAQAEDEAEYYCVLWYSNLWVFGGGTKLTVL
Output: criterion not met

Input: Identify whether the reported affinity (ELISA) of the following binder is 0.5 nM or greater: aCD3-hVH8/VL5 (antibody, human IgG4, V domains shown, also called humanized anti-CD3 antibody hVH8/VL5) VH: EVQLVESGGGLVQPGGSLRLSCAASGFTFNTYAMNWVRKAPGKGLEWVGRIRSKYNNYATYYADSVKDRFTISRDDSKNSLYLQMNSLKTEDTAVYYCARHGNFGNSYVSWFAYWGQGTLVTVSS VL: QAVVTQEPSLTVSPGGTVTLTCRSSTGAVTTSNYANWVQEKPGQAPRGLIGGTNKRAPWTPARFSGSLLGGKAALTITGAQAEDEAEYYCVLWYSNLWVFGGGTKLTVL
Output: criterion met

Moving on to another binder below.
Input: Identify whether the reported affinity (ELISA) of the following binder is 0.5 nM or greater: aCD3-hVH9/VL3 (antibody, human IgG4, V domains shown, also called humanized anti-CD3 antibody hVH9/VL3) VH: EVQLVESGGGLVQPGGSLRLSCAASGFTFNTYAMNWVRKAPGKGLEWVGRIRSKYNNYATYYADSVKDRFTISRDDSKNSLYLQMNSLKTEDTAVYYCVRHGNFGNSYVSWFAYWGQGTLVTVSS VL: EAVVTQEPSLTVSPGGTVTLTCESSDGAVTTSNYANWVQEKPGQAPRGLIGGTNKEAPWTPARFSGSLLGGKAALTLSGAQPEDEAEYYCALWYSNLWVFGGGTKLTVL
Output: criterion met
